Reference source for all entries: the supplement of paper PMC10307832

# Test system: NCI-H1650
# ASSAY_DETAILS: relative viability (nuclei count vs DMSO), 5 days (fraction); higher = more cells survive
# MEASUREMENT_SETUP: first compound 0.4 µM
VALUE_KIND: relative viability
Number only, no unit.

Output measured relative viability for this item: Cc1sc2c(c1C)C(c1ccc(Cl)cc1)=N[C@@H](CC(=O)OC(C)(C)C)c1nnc(C)n1-2 [JQ1] + CS(=O)(=O)N1CCN(Cc2cc3nc(-c4cccc5[nH]ncc45)nc(N4CCOCC4)c3s2)CC1 [Pictilisib] (partner 1 µM)
0.286

Output measured relative viability for this item: Cc1sc2c(c1C)C(c1ccc(Cl)cc1)=N[C@@H](CC(=O)OC(C)(C)C)c1nnc(C)n1-2 [JQ1] + CC(=O)c1c(C)c2cnc(Nc3ccc(N4CCNCC4)cn3)nc2n(C2CCCC2)c1=O [Palbociclib] (partner 0.5 µM)
0.256

Output measured relative viability for this item: Cc1sc2c(c1C)C(c1ccc(Cl)cc1)=N[C@@H](CC(=O)OC(C)(C)C)c1nnc(C)n1-2 [JQ1] + Cc1nc(Nc2ncc(C(=O)Nc3c(C)cccc3Cl)s2)cc(N2CCN(CCO)CC2)n1 [Dasatinib] (partner 0.075 µM)
0.201

Output measured relative viability for this item: Cc1sc2c(c1C)C(c1ccc(Cl)cc1)=N[C@@H](CC(=O)OC(C)(C)C)c1nnc(C)n1-2 [JQ1] + Cc1cc(Nc2cc(N3CCN(C)CC3)nc(Sc3ccc(NC(=O)C4CC4)cc3)n2)n[nH]1 [Tozasertib] (partner 0.1 µM)
0.284

Output measured relative viability for this item: Cc1sc2c(c1C)C(c1ccc(Cl)cc1)=N[C@@H](CC(=O)OC(C)(C)C)c1nnc(C)n1-2 [JQ1] + N=C(N)NC(=N)NCCc1ccccc1 [Phenformin] (partner 250 µM)
0.182

Output measured relative viability for this item: Cc1sc2c(c1C)C(c1ccc(Cl)cc1)=N[C@@H](CC(=O)OC(C)(C)C)c1nnc(C)n1-2 [JQ1] + Nc1ncn([C@H]2C[C@H](O)[C@@H](CO)O2)c(=O)n1 [Decitabine] (partner 2 µM)
0.333

Output measured relative viability for this item: Cc1sc2c(c1C)C(c1ccc(Cl)cc1)=N[C@@H](CC(=O)OC(C)(C)C)c1nnc(C)n1-2 [JQ1] + O=C(CCCCCCC(=O)Nc1ccccc1)NO [Vorinostat] (partner 1 µM)
0.475

###

# Tested on: NCI-H358
# ASSAY_DETAILS: relative viability (nuclei count vs DMSO), 5 days (fraction); higher = more cells survive
# MEASUREMENT_SETUP: first compound 15.81 µM
Label Criterion met when relative viability < 0.2; otherwise Criterion not met.

Strictly below 0.2 in relative viability? O=C(O)CCCCC(CCSCc1ccccc1)SCc1ccccc1 (stereo not given) [CPI-613] + CS(=O)(=O)CCNCc1ccc(-c2ccc3ncnc(Nc4ccc(OCc5cccc(F)c5)c(Cl)c4)c3c2)o1 [Lapatinib] (partner 2 µM)
Criterion not met

Strictly below 0.2 in relative viability? O=C(O)CCCCC(CCSCc1ccccc1)SCc1ccccc1 (stereo not given) [CPI-613] + CCNC(=O)c1noc(-c2cc(C(C)C)c(O)cc2O)c1-c1ccc(CN2CCOCC2)cc1 [Luminespib] (partner 0.01 µM)
Criterion not met

Strictly below 0.2 in relative viability? O=C(O)CCCCC(CCSCc1ccccc1)SCc1ccccc1 (stereo not given) [CPI-613] + CS(=O)(=O)N1CCN(Cc2cc3nc(-c4cccc5[nH]ncc45)nc(N4CCOCC4)c3s2)CC1 [Pictilisib] (partner 1 µM)
Criterion not met

Strictly below 0.2 in relative viability? O=C(O)CCCCC(CCSCc1ccccc1)SCc1ccccc1 (stereo not given) [CPI-613] + Cc1nc(NC(=O)N2CCC[C@H]2C(N)=O)sc1-c1ccnc(C(C)(C)C(F)(F)F)c1 [Alpelisib] (partner 2 µM)
Criterion not met

Strictly below 0.2 in relative viability? O=C(O)CCCCC(CCSCc1ccccc1)SCc1ccccc1 (stereo not given) [CPI-613] + CC(=O)c1c(C)c2cnc(Nc3ccc(N4CCNCC4)cn3)nc2n(C2CCCC2)c1=O [Palbociclib] (partner 0.5 µM)
Criterion met
